Kindly supply the reported Ka values for the records listed here.
- MEASUREMENT TARGET: T1, native human ApoC3 (human, UniProt P02656 21-99)
- T1 construct: also called nhuApoC3; native huApoC3
- T1 sequence (P02656 21-99): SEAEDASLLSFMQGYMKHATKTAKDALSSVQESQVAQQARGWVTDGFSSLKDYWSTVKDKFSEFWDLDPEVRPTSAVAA
- PROCEDURE DETAILS: SPR, ApoC3 over captured IgG1, pH 7.4
State just the number; it will be interpreted in M⁻¹.

Challenge: Item mAb9 (antibody, IgG1, V domains shown, Produced as full length IgG1 (kappa) in ExpiCHO-S cells; also called humanized anti-ApoC3 antibody mAb9) VH: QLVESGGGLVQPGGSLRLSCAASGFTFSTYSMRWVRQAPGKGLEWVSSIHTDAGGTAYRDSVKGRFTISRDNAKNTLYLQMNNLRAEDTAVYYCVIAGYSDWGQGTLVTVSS VL: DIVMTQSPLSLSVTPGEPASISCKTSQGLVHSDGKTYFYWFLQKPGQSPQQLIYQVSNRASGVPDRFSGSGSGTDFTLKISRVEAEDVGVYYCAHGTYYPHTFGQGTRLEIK : provide Ka
Response given: 4.31e+06

Challenge: Item mAb18 (antibody, IgG1, V domains shown, Produced as full length IgG1 (kappa) in ExpiCHO-S cells; also called humanized anti-ApoC3 antibody mAb18) VH: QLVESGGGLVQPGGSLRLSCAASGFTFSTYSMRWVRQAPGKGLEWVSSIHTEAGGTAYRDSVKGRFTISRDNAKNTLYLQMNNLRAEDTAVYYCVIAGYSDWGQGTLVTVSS VL: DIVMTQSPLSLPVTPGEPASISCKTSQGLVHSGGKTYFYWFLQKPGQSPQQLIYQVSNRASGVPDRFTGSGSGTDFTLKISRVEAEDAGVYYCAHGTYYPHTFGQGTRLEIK : provide Ka
Response given: 1.97e+06

Challenge: Item mAb7 (antibody, V domains shown, Produced as full length IgG1 (kappa) in ExpiCHO-S cells; also called humanized anti-ApoC3 antibody mAb7) VH: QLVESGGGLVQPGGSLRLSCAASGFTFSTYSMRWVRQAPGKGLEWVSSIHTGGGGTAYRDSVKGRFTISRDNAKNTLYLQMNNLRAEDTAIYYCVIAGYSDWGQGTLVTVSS VL: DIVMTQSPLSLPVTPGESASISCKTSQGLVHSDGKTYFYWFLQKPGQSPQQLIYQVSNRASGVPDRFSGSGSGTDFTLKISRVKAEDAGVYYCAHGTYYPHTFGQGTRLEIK : provide Ka
Response given: 4.05e+06

Challenge: Item mAb17 (antibody, IgG1, V domains shown, Produced as full length IgG1 (kappa) in ExpiCHO-S cells; also called humanized anti-ApoC3 antibody mAb17) VH: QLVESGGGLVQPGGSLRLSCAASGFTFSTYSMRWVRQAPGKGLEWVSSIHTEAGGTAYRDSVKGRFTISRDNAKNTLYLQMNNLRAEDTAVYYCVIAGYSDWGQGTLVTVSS VL: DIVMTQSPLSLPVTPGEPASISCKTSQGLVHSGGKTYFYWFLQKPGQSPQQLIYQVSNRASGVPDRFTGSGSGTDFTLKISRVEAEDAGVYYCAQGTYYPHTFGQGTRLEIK : provide Ka
Response given: 1.6e+07

Challenge: Item mAb2 (antibody, IgG1, V domains shown, Produced as full length IgG1 (kappa) in ExpiCHO-S cells; also called humanized anti-ApoC3 antibody mAb2) VH: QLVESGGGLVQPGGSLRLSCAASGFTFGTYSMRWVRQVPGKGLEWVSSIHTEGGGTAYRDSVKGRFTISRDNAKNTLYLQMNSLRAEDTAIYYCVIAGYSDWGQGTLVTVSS VL: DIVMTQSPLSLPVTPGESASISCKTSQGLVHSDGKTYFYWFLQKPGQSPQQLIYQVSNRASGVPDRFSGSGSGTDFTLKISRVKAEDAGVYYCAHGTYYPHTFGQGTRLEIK : provide Ka
Response given: 9.69e+06
